target: BaF3 (EGFR Del19/C797S) (Homo sapiens, UniProt P00533, C797S, cells depend on it, form not given); construct: BaF3 (EGFR Del19/C797S)|DC|RPMI1640 + 10% FBS; experiment: Cell proliferation IC50 assay (Cell Titer GLO), BaF3 DC cells; type: cell-based, mouse; settings: Table 6, 72 h
Sequence (P00533 with tags, fused parts or gaps DEL746-750/C797S, form open): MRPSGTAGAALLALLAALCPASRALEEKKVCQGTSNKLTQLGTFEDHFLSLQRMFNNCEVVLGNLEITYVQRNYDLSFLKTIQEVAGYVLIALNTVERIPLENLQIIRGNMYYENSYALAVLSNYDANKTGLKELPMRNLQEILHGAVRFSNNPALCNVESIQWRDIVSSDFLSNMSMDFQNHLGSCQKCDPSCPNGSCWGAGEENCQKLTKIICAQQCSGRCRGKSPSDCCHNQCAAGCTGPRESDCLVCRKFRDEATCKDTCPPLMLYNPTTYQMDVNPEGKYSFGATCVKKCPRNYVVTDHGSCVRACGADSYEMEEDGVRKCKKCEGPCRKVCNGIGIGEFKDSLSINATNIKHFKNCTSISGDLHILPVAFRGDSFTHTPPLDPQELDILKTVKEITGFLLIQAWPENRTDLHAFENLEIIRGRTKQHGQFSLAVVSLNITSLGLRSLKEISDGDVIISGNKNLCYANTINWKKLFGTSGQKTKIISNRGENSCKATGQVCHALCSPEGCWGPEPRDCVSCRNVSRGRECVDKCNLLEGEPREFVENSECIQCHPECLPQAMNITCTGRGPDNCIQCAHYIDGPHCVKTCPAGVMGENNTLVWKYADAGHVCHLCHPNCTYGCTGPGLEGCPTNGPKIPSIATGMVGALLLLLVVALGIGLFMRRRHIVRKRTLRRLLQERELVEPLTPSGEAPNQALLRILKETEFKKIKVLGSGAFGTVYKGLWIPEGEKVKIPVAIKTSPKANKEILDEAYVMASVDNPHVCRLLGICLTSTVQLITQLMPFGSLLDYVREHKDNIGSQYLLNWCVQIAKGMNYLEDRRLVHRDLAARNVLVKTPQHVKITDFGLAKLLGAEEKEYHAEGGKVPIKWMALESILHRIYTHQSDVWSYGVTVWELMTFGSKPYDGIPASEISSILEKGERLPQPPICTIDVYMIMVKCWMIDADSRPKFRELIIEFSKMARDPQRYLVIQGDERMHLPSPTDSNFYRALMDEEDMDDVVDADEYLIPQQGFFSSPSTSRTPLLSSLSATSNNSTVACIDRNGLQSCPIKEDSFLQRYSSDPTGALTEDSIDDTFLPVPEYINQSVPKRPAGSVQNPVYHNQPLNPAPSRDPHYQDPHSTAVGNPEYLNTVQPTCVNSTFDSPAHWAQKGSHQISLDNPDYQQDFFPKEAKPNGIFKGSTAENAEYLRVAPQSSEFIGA
pIC50: −log10 of the molar value.
# binarize pIC50: threshold 8 inclusive, high side criterion met, low side criterion not met

compound	class
CCc1cc(Nc2ncc(Br)c(Nc3ccc4c(c3P(C)(C)=O)OCCO4)n2)c(OC)cc1N1CCC(N2CCN(CCC#Cc3cccc4c3CN(C3CCC(=O)NC3=O)C4=O)CC2)CC1 (stereo not shown)	criterion met
COc1cc(N2CCC(N3CCN(CCOc4cccc5c4CN(C4CCC(=O)NC4=O)C5=O)CC3)CC2)c(C(C)=O)cc1Nc1ncc(Cl)c(Nc2ccccc2P(C)(C)=O)n1 (stereo not shown)	criterion not met
CCc1cc(Nc2ncc(-n3cnc(C)n3)c(Nc3ccccc3P(C)(C)=O)n2)c(OC)cc1N1CCC(N2CCN(CCOc3ccc4c(c3)CN(C3CCC(=O)NC3=O)C4=O)CC2)CC1 (stereo not shown)	criterion met
COc1cc2c(cc1Nc1ncc(Cl)c(Nc3ccccc3P(C)(C)=O)n1)CCN(C1CCN(C(=O)COc3cccc4c3CN(C3CCC(=O)NC3=O)C4=O)CC1)C2 (stereo not shown)	criterion not met
CCc1cc(Nc2ncc(Cl)c(Nc3ccccc3P(C)(C)=O)n2)c(OC)nc1N1CCC(N2CCN(CCCCOc3cccc4c3CN(C3CCC(=O)NC3=O)C4=O)CC2)CC1 (stereo not shown)	criterion met
CCc1cc(Nc2ncc(-c3nc(C)no3)c(Nc3ccccc3P(C)(C)=O)n2)c(OC)cc1N1CCC(N2CCN(CCOc3cccc4c3CN(C3CCC(=O)NC3=O)C4=O)CC2)CC1 (stereo not shown)	criterion not met
CCc1cc(Nc2ncc(Cl)c(Nc3ccccc3P(C)(C)=O)n2)c(OC)cc1N1CCC(N2Cc3ccc(Sc4cccc5c4CN(C4CCC(=O)NC4=O)C5=O)cc3C2)CC1 (stereo not shown)	criterion not met
CCc1cc(Nc2ncc(Cl)c(Nc3ccccc3P(C)(C)=O)n2)c(OC)cc1N1CCC2(CCN(CCCCOc3ccc(NC4CCC(=O)NC4=O)cc3)CC2)CC1 (stereo not shown)	criterion not met
